tested on: SNB-75 CNS; assay: NCI tumour cell line growth inhibition, 48 h
Measured Parameter: TGI

>>> test_result("S=C1SC2(CCCCCC2)NC2=C1CCCCC2")
"81.8 µM"

Ask: Observed TGI on SNB-75 CNS for `COc1cc(CSc2ccc(O)cc2)cc(O)c1O` , please.
Result: > 100 µM

Ask: Same for COC(=O)C(=O)C(C(=O)C(=O)Nc1ccc([N+](=O)[O-])cc1C#N)c1nc2ccc([N+](=O)[O-])cc2[nH]c1=O (centres undefined)
Result: > 100 µM

Ask: Also CC(=O)[CH-]C(=O)c1ccccc1.CC(=O)[CH-]C(=O)c1ccccc1.CC(C)CCCC(C)[C@H]1CCC2[C@@H]3CCC4C[C@@H]([O-])CC[C@]4(C)C3CC[C@@]21C.CC(C)CCCC(C)[C@H]1CCC2[C@@H]3CCC4C[C@@H]([O-])CC[C@]4(C)C3CC[C@@]21C.Cl.[Ti+4] (some centres undefined) , if possible.
Result: > 25 µM

Ask: Do the same for `Cn1cc(C=C(C#N)C#N)c(=O)n(C)c1=O` please
Result: > 100 µM

---

Each item that follows carries a reported log10 TGI.
test system: SF-539 CNS; experiment: NCI tumour cell line growth inhibition, 48 h
Lab note - TGI converted to log10 from values in µM.

Below are worked cases with known answers.
>>> test_result("C=C(/C=C/C=C(/CCC=C(C)C)COC(C)=O)[C@@H]1CC[C@]2([C@H](CCCO)/C(=C(/C)C=O)CC[C@]2(C)O)[C@@H]1O")
1.45
>>> test_result("COc1cc(/C=C\\c2cc(/C=C\\c3ccc(O)c(OC)c3)n(C(=O)Nc3ccc(C(F)(F)F)cc3)n2)ccc1O")
0.87
>>> test_result("CC(C)[C@H](COC(C)(C)C)N=CN1CSc2ccccc21")
1.82

Ask: Fill blank: measured log10 TGI of the molecule `CC(=O)O[C@H]1CC[C@]2(C)[C@H]3C(=O)C=C4[C@@H]5C[C@](C)(C(=O)N6CCCNCC6)CC[C@]5(C)CC[C@@]4(C)[C@]3(C)CC[C@H]2C1(C)C` is ____.
Result: 0.48

Ask: What do we get for `CCCCCCCCCCSS(=O)(=O)c1ccc(C)cc1` ?
Result: 0.56

Ask: Follow-up entry: CCCCCCCCCCCCCC/C(=C/OCC[N+](C)(C)C)OC(C)=O (tested in a mixture with another compound)
Result: 0.77

Ask: Also check `C/C=C1/CN2CC[C@@H]3c4ccccc4N4[C@H](C(=O)OC)[C@H]1C[C@H]2[C@]34/C=C/C1=COC[C@@H]2[C@H]1C[C@H]1c3c(c4ccccc4n3C)C[C@@H]2N1C`
Result: 0.88

Ask: Lookup `CN(C)c1ncc(-c2c[nH]c3ccccc23)nc1-c1c[nH]c2ccccc12`
Result: 1.40

Ask: Queued: `CCCCCCCCOC(=O)c1cc(O)c(O)c(O)c1`
Result: 1.26

Ask: Now give it for `COc1cc(CSc2ccc(O)cc2)cc(O)c1O` too.
Result: 1.93

Ask: Further, for `CC1=CC(=O)c2cccc(O)c2C1=O` ?
Result: 1.09

Ask: Quick one: `O=[N+]([O-])/C=C/c1cccc(F)c1`
Result: 1.32

Ask: Next molecule up: `COc1ccc(CNCCCN2C(=O)c3ccc4c5c(ccc(c35)C2=O)C(=O)N(CCCNCCCCNCCCN)C4=O)c(OC)c1OC`
Result: 0.72

Ask: Now the same for COC(=O)/C=C\C1C(C(=O)OC)C2(C(=O)OC)CCC1(C(=O)OC)N2 (centres undefined)
Result: 1.51

Ask: And then `COc1ccc(C(F)(F)F)cc1NC(=O)O/N=C(/Cl)C(C)C` , what is it?
Result: 1.57

Ask: Then `Cc1cc2cc(Oc3ccnc(Nc4cccc(CS(=O)(=O)NCCN(C)C)c4)n3)ccc2[nH]1` ?
Result: 1.12

Ask: Can you handle `COc1ccccc1NC(=O)N/C(N)=N/c1nc2ccccc2s1` next?
Result: -0.39
